# assayed system: T1, Human PD-1 expressed on CHO-K1 cells (CHO-K1/hPD-1) (human, UniProt Q15116 25-288)
# T1 construct: whole, on cells; also called CHO-K1 cells overexpressing human PD-1
# T1 sequence (Q15116 25-288): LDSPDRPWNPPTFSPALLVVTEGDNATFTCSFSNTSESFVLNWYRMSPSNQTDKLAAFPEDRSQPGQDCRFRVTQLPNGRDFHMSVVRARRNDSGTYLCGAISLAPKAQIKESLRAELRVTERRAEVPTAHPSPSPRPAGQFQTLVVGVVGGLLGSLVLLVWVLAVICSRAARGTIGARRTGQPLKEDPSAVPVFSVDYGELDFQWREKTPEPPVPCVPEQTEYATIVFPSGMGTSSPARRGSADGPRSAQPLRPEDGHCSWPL
# test description: FACS, CHO-K1/hPD-1 cells
value type: MFI Maximum
API doc: respond with a numeric literal and nothing else, no unit.

[[record]]
binder = "PR002481 (antibody, human IgG1, V domains shown, Heavy-chain-only antibody (HCAb), human IgG1 Fc; two heavy chains, no light chain; also called R4004P556D1; anti-PD1 R4004P556D1 HCAb hG1) VH: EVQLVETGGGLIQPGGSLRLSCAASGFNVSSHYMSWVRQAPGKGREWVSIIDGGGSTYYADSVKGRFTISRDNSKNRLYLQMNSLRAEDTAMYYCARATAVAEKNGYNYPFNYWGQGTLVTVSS"
endpoint_value = 950000


Query: Quick one: MFI Maximum of PR002479 (antibody, human IgG1, V domains shown, Heavy-chain-only antibody (HCAb), human IgG1 Fc; two heavy chains, no light chain; also called R4004P551D6) VH: EVQLVETGGGLIQPGGSLRLSCAASGFNVSSHYMSWVRQAPGKGLEWVSIIHSGGSTYYADSVKGRFTISRDNSKNRLYLQMNSLRAEDTAVYYCARATAVAEENGYNYPFNYWGQGTLVTVSS ?
Response: 1.05e+06

Query: What value of measured MFI Maximum is listed for PR000673 (antibody, human IgG4 S228P, kappa, V domains shown, Fully human recombinant H2L2 antibody, human IgG4, kappa light chain; also called 4004_10H9A12) VH: QVQLVESGGGVVQPGRSLRLSCAASGFIFSNYGMHWVRQAPGKGLEWVAVIWYDGSKKYYGDSVKGRFTISRDNSKNTLYLQMNSLRDEDTAVYFCARNDDYWGQGTLVTVSS VL: EIVLTQSPATLSFSPGERATLSCRASQSVSSDLAWYQQKPGQAPSLLIYDASNRATGIPARFSGSGSGTDFTLTISSLEPEDFAVYYCHQRNNWPLTFGGGTKVEIKR ?
Response: 1.57e+06

Query: Fill in the blank: the reported MFI Maximum of PR005141 (VHH, Monovalent single-domain (VH) variant of PR002481 with Flag-6His tag) VHH: EVQLVETGGGLIQPGGSLRLSCAASGFNVSYFYMSWVRQAPGKGREWVSIIDKGGSGYYAASVKGRFTISRDNSKNRLYLQMNSLRAEDTAMYYCARATEVREKNGYNYPFNYWGQGTLVTVSS is ____.
Response: 13300

Query: Reported MFI Maximum for PR005150 (VHH, Monovalent single-domain (VH) variant of PR002481 with Flag-6His tag) VHH: EVQLVETGGGLIQPGGSLRLSCAASGFNVSSFYMSWVRQAPGKGREWVSIIDKAGSTYYGASVKGRFTISRDNSKNRLYLQMNSLRAEDTAMYYCARATEVREKQGYNYPFNYWGQGTLVTVSS : what is it?
Response: 10400

Query: Record request: MFI Maximum value, item PR005144 (VHH, Monovalent single-domain (VH) variant of PR002481 with Flag-6His tag) VHH: EVQLVETGGGLIQPGGSLRLSCAASGFNVSFYYMSWVRQAPGKGREWVSIIDKSGSTYYAASVKGRFTISRDNSKNRLYLQMNSLRAEDTAMYYCARATEVREKNGYNYPFNYWGQGTLVTVSS
Response: 11600

Query: What value of MFI Maximum has been recorded for this entry: PR005147 (VHH, Monovalent single-domain (VH) variant of PR002481 with Flag-6His tag) VHH: EVQLVETGGGLIQPGGSLRLSCAASGFNVSYYYMSWVRQAPGKGREWVSIIDKAGSTYYGASVKGRFTISRDNSKNRLYLQMNSLRAEDTAMYYCARATMVREKNGYNYPFNYWGQGTLVTVSS
Response: 18000

Query: Requested read-out: MFI Maximum. Entry: PR000675 (antibody, human IgG4 S228P, kappa, V domains shown, Fully human recombinant H2L2 antibody, human IgG4, kappa light chain; also called 4004_19G8F2) VH: EVQLLESGGGLVQPGGSLRLSCVDSGFTFSSYAMTWVRQAPGKGLEWVSGISGSGYSTYYADSVKGRFTISRDNSKKTLYLQMNSLRAEDTAVYYCAELSLDYWGQGTLVTVSS VL: EIVLTQSPATLSLSPGERATLSCRASQSVSRYLAWYQQKPGQAPRLLMHDAANRATGLPARFNGSGSGTDFTLTISSLEPEDFAVYYCQQRNNWPLTFGGGTKVEIKR
Response: 2.29e+06

Data origin, for the record: patent US20240034792A1
